Experiment: PK of compound of Formula (Ia) after single subcutaneous dose of solution formulations in Wistar Han rats
Type: in vivo
Conditions: male, Wistar Han, rat, plasma, sc, 50 mg/kg, Wistar Han rats, SC 50 mg/kg, 500 mg/mL solution X (5.00% ethanol, 1.91% poloxamer 188), 168 h, Mean n = 3
Procedure: Formulations containing the compound of Formula (Ia), or a pharmaceutically acceptable salt thereof, were prepared as solutions and optionally administered subcutaneously or intramuscularly to rats, rabbits, and/or dogs. A solution of about 400 mg/mL of the compound of Formula (Ia) having 19.14 w/w % water, 40.66 w/w % PEG 300, 35.20 w/w % of a sodium salt of a compound of Formula (Ia), and 5.00% ethanol was prepared. […]
readout kind: concentration at 168 h (nM)
Reply with just the number (in nM).

Give concentration at 168 h for the following molecule: CC(C)(C#Cc1ccc(-c2ccc(Cl)c3c(NS(C)(=O)=O)nn(CC(F)(F)F)c23)c([C@H](Cc2cc(F)cc(F)c2)NC(=O)Cn2nc(C(F)(F)F)c3c2C(F)(F)[C@@H]2C[C@H]32)n1)S(C)(=O)=O 176
